# maps each entry to its cytotoxicity at 70.5 h
experiment notes: Human HepG2 cell viability assay in 384 well format
Assay type: toxicity, cell-based
Set-up: dose 125 nL, time 70.5 hour; concentration not given beside the values
settings: HepG2 cells, read-out: Inhibition
Dear colleague, please return just the value in %, with no unit written.

NC(=O)c1cc(-c2cccc(C(=O)O)c2)cs1 :: -15.4

Supply recorded cytotoxicity at 70.5 h for CC(NC(=O)CCCOc1ccccc1)c1nnc2n1CCCCC2 (stereo not drawn) here.
-20.9

Note cytotoxicity at 70.5 h for the compound shown: `CC(C)COC(=O)N1CCN(C(=O)c2ccc3nccn3c2)CC1`
30.9

Recall and state the measured cytotoxicity at 70.5 h for CN1C(=O)CC(C(=O)O)C12CCN(c1ccc3ccccc3n1)CC2 (stereo not drawn) .
-4.07

Supply measured cytotoxicity at 70.5 h of `CCOC(=O)c1coc(N2CCN(Cc3cccc(OC)c3)C(=O)C2)n1` in your reply.
4.55

# return recorded cytotoxicity at 70.5 h for entry c1cnn(CC2CCCN2c2ncnc3c2CCC3)c1 (stereo not drawn)
4.07

// fetch cytotoxicity at 70.5 h given entry c1csc(CCN2CCCC2c2noc(C3CC3)n2)c1 (stereo not drawn)
-7.22
